Target: antibody C1
Test: peptide competition ELISA: soluble peptide against immobilized target peptide for antibody C1
Property: IC50 (nM)
Answers are plain numbers, in nM.

Input: Bench note: what IC50 did YEVQGEVF [CRP-derived 8-mer PET YEVQGEVF] show?
Output: 1000
